Values were extracted from ChEMBL document CHEMBL1201862.

Tested on: UACC-257
measurementNotes: NCI tumour cell line growth inhibition, 48 h
Activity calls are given as the source filed them. No stated cut-off is given here; in the data, active = GI50 up to about 1.1 µM and inactive = higher.
Attribute: GI50

| compound | GI50 |
| --- | --- |
| [O-][n+]1cn[n+]([O-])c2ccccc21 | 16.9 µM (inactive) |
| O=C(Cc1nc2ccc(C(=O)c3ccccc3)cc2nc1O)C(=O)Nc1ccc(C(F)(F)F)cc1[N+](=O)[O-] | > 100 µM (inactive) |
| O=C(O)C/C(=C\c1ccco1)C(=O)O | > 100 µM (inactive) |
| Oc1ccc(/C=C/c2cccc(/C=C/c3ccc(O)c(O)c3)n2)cc1O | 13.9 µM (inactive) |
| COC(=O)/C=C(\C)CC(O)/C=C(\C)CCC=C(C)C (stereo unspecified) | 47.4 µM (inactive) |
| Cc1c2cc[n+](C)cc2c(C)c2c1[nH]c1ccccc12 | 5.97 µM (inactive) |

====

Test system: M14
measurementNotes: NCI tumour cell line growth inhibition, 48 h
The source made the active and inactive calls. No stated cut-off is given here; in the data, active = GI50 up to about 1.1 µM and inactive = higher.
Recorded GI50 values for a group of compounds are listed next.
outcomeMeasure: GI50

| compound | result |
| --- | --- |
| C/C(=N/Nc1ccc([N+](=O)[O-])cc1[N+](=O)[O-])C(CC(C(=O)NCc1ccccc1)/C(C)=N\Nc1ccc([N+](=O)[O-])cc1[N+](=O)[O-])C(=O)NCc1ccccc1 (centres undefined) | 8.04 µM (inactive) |
| Cn1c2c(c3ccccc31)CCN1OCC=C[C@@H](C(=O)O)[C@@H]21 | > 100 µM (inactive) |
| C#CCNC(=O)NC(CCCCNC(=O)OCc1ccccc1)C(=O)OCc1ccccc1 (centres undefined) | 22.7 µM (inactive) |
| N=c1sc(N2CCOCC2)nn1CC(=O)c1ccccc1 | > 100 µM (inactive) |

====

Tested on: OVCAR-8
measurementNotes: NCI tumour cell line growth inhibition, 48 h
Activity calls are given as the source filed them. Rule as the data show it: active = GI50 up to about 1.1 µM and inactive = higher.
Outcome codes: class 1 for active, class 0 for inactive

| compound | tgt | assignedClass |
| --- | --- | --- |
| CC(=O)Nc1ccc(S(=O)(=O)Nc2nc(-c3ccc(Cl)cc3)cc(N3N=C(c4ccc(Br)cc4)CC3c3ccccc3)n2)cc1 (configuration not stated) | OVCAR-8 | class 0 |
| N#COc1ccc(Oc2ccc(OC#N)cc2)cc1 | OVCAR-8 | class 0 |
| Fc1ccc(C2SCc3nc4ccccc4n32)c(F)c1 (configuration not stated) | OVCAR-8 | class 0 |
| CCCCc1ccc(Nc2cc(=O)n(C)c(=O)[nH]2)cc1 | OVCAR-8 | class 0 |
| CC(C)NC(=O)OCc1c2c(n(C)c1COC(=O)NC(C)C)-c1ccccc1CC2 | OVCAR-8 | class 0 |
| Cc1ccsc1/C=N/NC1=NCCN1 | OVCAR-8 | class 0 |
| COC(=O)C1=C(C)NC(C)=C(C(=O)OC)C1c1ccc(/[N+]([O-])=C/c2ccccc2)cc1 | OVCAR-8 | class 0 |
| CCC(=O)Nc1ccc(N2C(=O)C(Cl)C2c2ccc(SC)cc2)cc1 (configuration not stated) | OVCAR-8 | class 0 |
| Cc1ccc(S(=O)(=O)c2scc(-c3ccccc3)c2C)cc1 | OVCAR-8 | class 0 |
| C#CCNC(=O)NC(CCCCNC(=O)OCc1ccccc1)C(=O)OCc1ccccc1 (configuration not stated) | OVCAR-8 | class 0 |
| Cn1c(=O)c2c(nc3n(Cc4ccccc4)c(=O)c(NCCBr)cn23)n(C)c1=O | OVCAR-8 | class 0 |
| S=c1sscc1N1CCSc2ssc(=S)c21 | OVCAR-8 | class 0 |
| COc1ccc(/C=C2\CN(C)Cc3c2nc(O)c(C#N)c3-c2ccc(OC)cc2)cc1 | OVCAR-8 | class 0 |
| C=C(C)[C@@H]1CC[C@@H](C)[C@](O)([C@@H]2C[C@@H]([C@H](COC(=O)c3ccccc3)OC(=O)c3ccccc3)OC2=O)C1 | OVCAR-8 | class 0 |
| CCOc1nc2c(N3CCCC3)nc(N3CCNCC3)nc2nc1NCc1ccccc1 | OVCAR-8 | class 0 |
| CC(C)(C)OC(=O)NCC(C#N)CNC(=O)OC(C)(C)C | OVCAR-8 | class 0 |
| CC12OC3CC(O1)C1(C=O)C4CCC5(C)C(c6ccc(=O)oc6)CCC5(O)C4CCC1(C3)O2 (configuration not stated) | OVCAR-8 | class 1 |
| COc1cc(C)c(/C=C/C(=O)N2C(=O)OC[C@@H]2c2ccccc2)c(C)c1 | OVCAR-8 | class 0 |
| Cc1cc(O)c(C(=O)O)c2c1C(=O)c1c(O)c(OCC(O)C(O)C(O)C(O)CO)c(O)c(O)c1C2=O.NCCNCCO (configuration not stated) | OVCAR-8 | class 0 |
| Cc1ccc(NC(=O)CSc2nnc(Cc3ccccc3)o2)cc1 | OVCAR-8 | class 0 |
| CCCCNC(=O)Cn1c2ccc(Br)cc2c2nc3ccccc3nc21 | OVCAR-8 | class 0 |
| O=c1[nH]cc(/N=C/c2cc(Cl)ccc2O)c(=O)[nH]1 | OVCAR-8 | class 0 |
| CCN(CC(=O)O)CC(=O)O | OVCAR-8 | class 0 |
| CC1C(=O)OC2CC[N+]3([O-])CC=C(COC(=O)C(C)(O)C1(C)O)C23 (configuration not stated) | OVCAR-8 | class 0 |
| COc1cc(OC)c2c(=O)c3cccc(C)c3n(C)c2c1 | OVCAR-8 | class 0 |
| C#CCOCn1cnc2c(Sc3c([N+](=O)[O-])ncn3C)ncnc21 | OVCAR-8 | class 0 |
| C[C@H]1O[C@@H](c2c(O)ccc3ccccc23)C[C@@H](N(C)C)C1O (some centres not stated) | OVCAR-8 | class 0 |

====

Test system: OVCAR-5
measurementNotes: NCI tumour cell line growth inhibition, 48 h
The source made the active and inactive calls. Rule as the data show it: active = GI50 up to about 1.1 µM and inactive = higher.
Consider the following molecules and their measured GI50 readings.

| molecule | tgt | GI50 |
| --- | --- | --- |
| CS(=O)(=O)OCCN1CCC2(CC1)SSC1(CCN(CCOS(C)(=O)=O)CC1)S2 | OVCAR-5 | 24 µM (inactive) |
| FC(F)(F)c1ccc2c(-c3cc[nH]c3)ccnc2c1 | OVCAR-5 | 44.9 µM (inactive) |
| N#Cc1c2nc3ccccc3nc2n2ccccc12 | OVCAR-5 | > 100 µM (inactive) |
| C=CCSC1=N/C(=C\c2ccc(OC)cc2)C(=O)N1CC=C | OVCAR-5 | 57.8 µM (inactive) |
| O=C1C(=C(C(F)(F)Cl)C(F)(F)Cl)C2CCC1C2 (stereo unspecified) | OVCAR-5 | 2.96 µM (inactive) |
| CC1OC(n2ncc(=O)[nH]c2=O)C=CC1=O (stereo unspecified) | OVCAR-5 | > 100 µM (inactive) |
| COc1ccc(-c2c3ccccc3c(-c3ccc(OCCCCCBr)cc3)c3ccccc23)cc1 | OVCAR-5 | > 100 µM (inactive) |
| O=C1CC(c2ccccc2Cl)C2(C(=O)NC(=O)NC2=O)C(c2ccccc2Cl)C1 (stereo unspecified) | OVCAR-5 | > 100 µM (inactive) |
| Oc1ccc(/C=N/c2nccs2)c(O)c1 | OVCAR-5 | > 100 µM (inactive) |
| CCOC(=O)[C@H]1Nc2ccc(C)cc2C2c3ccccc3CC21 (stereo partly specified) | OVCAR-5 | > 100 µM (inactive) |
| CC(=O)/C=C1\Nc2ccccc2N\C1=C/C(C)=O | OVCAR-5 | 28.8 µM (inactive) |

====

System: SR
measurementNotes: NCI tumour cell line growth inhibition, 48 h
Active and inactive are the calls of the source. No stated cut-off is given here; in the data, active = GI50 up to about 1.1 µM and inactive = higher.
outcomeMeasure: GI50

| molecule | outcomeMeasure | result |
| --- | --- | --- |
| NS(=O)(=O)C1CCCCC1C(=O)NNC(=O)C(=O)Nc1nnc(S)[nH]1 (stereo not drawn) | GI50 | > 100 µM (inactive) |
| CC(C)(C)OC(=O)N1C(=O)C2CCCC21 (stereo not drawn) | GI50 | > 100 µM (inactive) |
| Oc1c(/N=N\c2ccccc2)c2cccc3ccc4cccc1c4c32 | GI50 | 20.9 µM (inactive) |
| NC1CCCCC1.O=C(CP(=O)(O)O)NC(CC(=O)OCc1ccccc1)C(=O)OCc1ccccc1 (stereo not drawn) | GI50 | > 100 µM (inactive) |
| COCCNC1CCC2(SCCS2)c2[nH]c3ccccc3c21 (stereo not drawn) | GI50 | 23.1 µM (inactive) |
| CCOC(=O)C=C1CCC2(CC1)OCCO2 | GI50 | > 100 µM (inactive) |
| CC(=O)OC1C/C(C)=C/[C@H](O)CC(C)/C=C/[C@@]2(C)CCC(C(C)(C)O)C12 (stereo partly drawn) | GI50 | > 100 µM (inactive) |
| COc1cc(Oc2nc3cc(F)c(F)cc3nc2-c2ccccc2)cc(OC)c1OC | GI50 | 78.9 µM (inactive) |
